measurement.target: PHGDH (Homo sapiens, UniProt O43175)
Sequence (O43175 whole entry): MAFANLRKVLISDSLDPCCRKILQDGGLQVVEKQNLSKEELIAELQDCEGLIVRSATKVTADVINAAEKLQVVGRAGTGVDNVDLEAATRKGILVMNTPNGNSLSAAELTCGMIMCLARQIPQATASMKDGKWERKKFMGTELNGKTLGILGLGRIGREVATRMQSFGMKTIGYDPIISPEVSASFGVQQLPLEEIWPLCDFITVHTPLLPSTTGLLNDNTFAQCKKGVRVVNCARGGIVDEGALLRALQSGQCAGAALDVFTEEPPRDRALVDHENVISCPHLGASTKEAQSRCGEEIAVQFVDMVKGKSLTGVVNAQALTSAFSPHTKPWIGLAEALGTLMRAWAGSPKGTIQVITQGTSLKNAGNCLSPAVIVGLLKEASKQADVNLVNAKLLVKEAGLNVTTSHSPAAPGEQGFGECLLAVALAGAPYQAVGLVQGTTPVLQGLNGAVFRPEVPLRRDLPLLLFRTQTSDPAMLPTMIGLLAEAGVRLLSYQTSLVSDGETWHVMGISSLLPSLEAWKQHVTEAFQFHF
experimental.details: PHGDH enzymatic assay on isolated PHGDH (WT)
Assay type: biochemical
assay.setup: two independent experiments in triplicates, brackets: 95% confidence interval
assay.endpoint: IC50

>>> result("O=C(C(=S)N1CCOCC1)c1ccc(C2(C(F)(F)F)N=N2)cc1 [Compound 11]")
"571 µM"

====

measurement.target: PHGDH (Homo sapiens, UniProt O43175)
experimental.details: Microscale thermophoresis (MST) binding assay
assay.setup: isolated PHGDH; two independent experiments in triplicates; brackets: 95% confidence intervals
pKd: −log10 of the molar value.
assay.endpoint: pKd

>>> quantitative_result("O=C(C(=S)N1CCOCC1)c1ccc(Cl)cc1")
4.46

====

measurement.target: PHGDH-tr (Homo sapiens)
Sequence (O43175 1-522): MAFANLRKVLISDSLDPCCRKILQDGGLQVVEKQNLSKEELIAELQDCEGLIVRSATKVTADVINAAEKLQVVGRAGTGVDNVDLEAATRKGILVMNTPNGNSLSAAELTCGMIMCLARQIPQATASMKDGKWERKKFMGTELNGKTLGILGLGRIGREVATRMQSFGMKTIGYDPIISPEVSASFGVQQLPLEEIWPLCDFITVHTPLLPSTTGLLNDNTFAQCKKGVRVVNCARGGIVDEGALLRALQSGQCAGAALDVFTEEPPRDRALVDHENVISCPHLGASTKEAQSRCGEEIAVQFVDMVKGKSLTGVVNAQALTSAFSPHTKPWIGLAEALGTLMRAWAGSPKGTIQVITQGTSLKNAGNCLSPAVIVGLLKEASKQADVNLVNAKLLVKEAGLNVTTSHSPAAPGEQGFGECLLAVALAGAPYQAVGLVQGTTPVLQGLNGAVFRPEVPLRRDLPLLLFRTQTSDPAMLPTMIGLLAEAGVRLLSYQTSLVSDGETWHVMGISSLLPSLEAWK
experimental.details: Enzymatic assay on truncated PHGDH lacking the 523[…]533 C-terminal site (PHGDH-tr)
assay.setup: truncated PHGDH lacking 523[…]533; brackets: 95% confidence interval; read-out: PHGDH (tr) inhibition (IC50)
assay.endpoint: IC50 (nM)

>>> quantitative_result("CCN(CC)C(=S)SSC(=S)N(CC)CC [DSF, disulfiram, reference compound]")
780
